# systemTested: T1, His9G-tagged cynomolgus CD27 recombinant protein (cynomolgus, limits assumed)
# T1 construct: In-house, transient transfection of HEK293 cells; also called Cyno CD27/His
# T1 chain: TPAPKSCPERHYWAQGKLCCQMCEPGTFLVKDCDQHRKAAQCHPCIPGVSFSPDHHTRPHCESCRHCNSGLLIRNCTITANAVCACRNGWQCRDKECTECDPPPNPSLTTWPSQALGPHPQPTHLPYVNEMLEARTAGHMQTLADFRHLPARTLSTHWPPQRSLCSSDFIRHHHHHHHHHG
# testDescription: SPR Biacore 4000, antibody captured on anti-human Fc, His9G-tagged CD27 injected, 1:1 fit;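 note: Double-referenced SPR (blank anti-Fc surface and buffer injection subtracted), KD derived from association and dissociation rate constants, with human and cynomolgus CD27 as analytes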
// reported pKd per item
Note: pKd values are expressed as the negative base-10 logarithm of concentration in M.

# binder, pKd
data = [
    ("hCD27.131A VH9VL9 huIgG4 (antibody, V domains shown) VH: EIQLVQSGAEVKKPGASVKVSCKASGYTFTNYGMNWVRQAPGQGLKWMGWINTNTGEPTYAEEFKGRFTFTLDTSASTAYMELSSLRSEDTAVYYCAREGDAMDYWGQGTTVTVSS VL: DIQLTQSPSTLSASVGDRVTITCSASSSVSYMHWYQQKPGKAPKRWIYDTSKLASGVPARFSGSGSGTDYTLTISSLQPEDFATYYCQQWNSYPFTFGQGTKLEIK", 7.14),
]

hCD27.131A VH6VL6 huIgG4 (antibody, V domains shown) VH: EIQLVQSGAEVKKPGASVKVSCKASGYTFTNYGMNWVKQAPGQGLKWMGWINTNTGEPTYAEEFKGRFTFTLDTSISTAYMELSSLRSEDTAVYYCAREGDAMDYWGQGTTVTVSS VL: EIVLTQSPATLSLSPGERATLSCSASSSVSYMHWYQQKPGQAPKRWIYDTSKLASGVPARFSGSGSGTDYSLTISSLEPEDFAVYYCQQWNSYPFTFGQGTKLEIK has a reported pKd of 7.14
